Origin of measurements: ChEMBL document CHEMBL2034924

Test: AUC (0 to infinity) in C57BL/6 mouse at 3 mg/kg, po
Format: ADME, organism-based
Design: time infinity, dose 3 mg/kg, route oral
Conditions: plasma
Measurement label: AUC(0-inf) (µM·h)
Note: unit µM·h is implicit; provide only the numeric part.

INPUT: Endpoint output: AUC(0-inf) of Cn1cc(C(=O)Nc2ccc(-c3ccccc3)c(C(F)(F)F)c2)c(=O)c2cnc(CO)cc21 . Value?
OUTPUT: 16

----------
Assay: Half life in Sprague-Dawley rat at 100 mg/kg, po
Format: ADME, organism-based
Set-up: dose 100 mg/kg, route oral
Conditions: in vivo
Measurement label: half-life (h)
Note: unit h is implicit; provide only the numeric part.

INPUT: Endpoint output: half-life of Cn1cc(C(=O)Nc2ccc(-c3ccccc3)c(C(F)(F)F)c2)c(=O)c2cnc(CO)cc21 . Value?
OUTPUT: 57

----------
Target: Sphingosine 1-phosphate receptor 3 (Homo sapiens, UniProt Q99500)
Sequence (Q99500 whole entry): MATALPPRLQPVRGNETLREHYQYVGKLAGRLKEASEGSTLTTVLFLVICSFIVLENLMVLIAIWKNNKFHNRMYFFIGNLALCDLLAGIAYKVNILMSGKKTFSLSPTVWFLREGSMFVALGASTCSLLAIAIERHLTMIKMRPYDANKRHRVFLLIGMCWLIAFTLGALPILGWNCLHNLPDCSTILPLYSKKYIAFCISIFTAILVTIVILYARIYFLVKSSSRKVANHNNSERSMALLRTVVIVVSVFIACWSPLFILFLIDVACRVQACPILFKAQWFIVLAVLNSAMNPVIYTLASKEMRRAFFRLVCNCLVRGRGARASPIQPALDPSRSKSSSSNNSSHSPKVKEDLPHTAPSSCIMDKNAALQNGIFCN
Experiment: Agonist activity at human S1P3 receptor expressed in CHO cells coexpressing Gq/i5 G-protein assessed as Ca2+ mobilization after 60 to 90 mins by FLIPR assay relative to 0.2 uM S1P
Measurement label: Efficacy (%)
Note: unit % is implicit; provide only the numeric part.

Examples from the recorded data:
{"columns": ["Structure string", "Efficacy / %"],
 "data": [
  ["Cn1cc(C(=O)Nc2ccc(-c3ccccc3)c(C(F)(F)F)c2)c(=O)c2cccc(C(=O)O)c21", 11],
  ["Cn1cc(C(=O)Nc2ccc(-c3ccccc3)c(C(F)(F)F)c2)c(=O)c2cnc(CCC(=O)O)cc21", 49],
  ["Cn1cc(C(=O)Nc2ccc(-c3ccccc3)c(C(F)(F)F)c2)c(=O)c2cccc(CN)c21", 48],
  ["Cn1cc(C(=O)Nc2ccc(-c3ccccc3)c(C(F)(F)F)c2)c(=O)c2ccc(CC(=O)O)cc21", 28]
]}

Now for another entry.
INPUT: // lookup Efficacy | system=Sphingosine 1-phosphate receptor 3 (Homo sapiens, UniProt Q99500) | key= Cn1cc(C(=O)Nc2ccc(-c3ccccc3)c(C(F)(F)F)c2)c(=O)c2ccc(CCC(=O)O)cc21
OUTPUT: 82

----------
Assay: Volume of distribution at steady state in nonhuman primates at 4 mg/kg, iv
Assay type: ADME, organism-based
Parameters: dose 4 mg/kg, route intravenous
Conditions: in vivo, read-out: Vdss
Measurement label: Vd (L/kg)
Note: unit L/kg is implicit; provide only the numeric part.

INPUT: Endpoint output: Vd of Cn1cc(C(=O)Nc2ccc(-c3ccccc3)c(C(F)(F)F)c2)c(=O)c2cnc(CO)cc21 . Value?
OUTPUT: 4.3

----------
Experiment: Plasma protein binding in rat
Type: ADME, cell-free
Conditions: read-out: PPB (converted)
// reported fraction unbound per item
Write no unit; give the number alone.

Examples from the recorded data:
{"columns": ["Structure string", "fraction unbound"],
 "data": [
  ["Cn1cc(C(=O)Nc2ccc(-c3ccccc3)c(C(F)(F)F)c2)c(=O)c2ccc(CO)cc21", 0.076],
  ["Cn1cc(C(=O)Nc2ccc(-c3ccccc3)c(C(F)(F)F)c2)c(=O)c2cnccc21", 0.083],
  ["Cn1cc(C(=O)Nc2ccc(-c3ccccc3)c(C(F)(F)F)c2)c(=O)c2ccc(CCC(=O)O)cc21", 0.022],
  ["Cn1cc(C(=O)Nc2ccc(-c3ccccc3)c(C(F)(F)F)c2)c(=O)c2ccc(CCO)cc21", 0.073],
  ["Cn1cc(C(=O)Nc2ccc(-c3ccccc3)c(C(F)(F)F)c2)c(=O)c2ccc(C(=O)O)cc21", 0.02]
]}

Now for another entry.
INPUT: Endpoint output: fraction unbound of Cn1cc(C(=O)Nc2ccc(-c3ccccc3)c(C(F)(F)F)c2)c(=O)c2cnc(CO)cc21 . Value?
OUTPUT: 0.083
